# assay.target: UniProt:Q9BY41
# Sequence (Q9BY41 whole entry): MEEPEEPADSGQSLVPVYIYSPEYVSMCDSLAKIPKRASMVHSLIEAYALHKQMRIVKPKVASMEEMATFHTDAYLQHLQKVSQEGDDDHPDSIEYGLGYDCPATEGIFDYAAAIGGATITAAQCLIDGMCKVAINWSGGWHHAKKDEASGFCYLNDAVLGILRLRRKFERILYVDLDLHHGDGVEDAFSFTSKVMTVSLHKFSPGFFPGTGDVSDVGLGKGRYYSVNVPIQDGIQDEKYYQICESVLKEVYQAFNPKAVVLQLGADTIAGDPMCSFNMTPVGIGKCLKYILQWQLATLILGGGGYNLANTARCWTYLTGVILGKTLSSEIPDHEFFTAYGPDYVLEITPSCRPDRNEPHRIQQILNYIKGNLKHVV
# assay.info: Inhibition of recombinant HDAC8 (unknown origin) incubated for 10 mins using Boc-Lys(acetyl)-AMC fluorogenic substrate by homogeneous fluorescence release assay
experimental.readout: IC50 (µM)

{"molecular.string": "O=C(CCCCCCc1nc(-c2ccc(F)cc2)no1)C(F)(F)F", "IC50 / µM": 7.65}

P. O=C(CCCCCCc1nc(-c2ccc([N+](=O)[O-])cc2)no1)NO
Q. O=C(CCCCCCc1nc(-c2ccc(C(F)(F)F)cc2)no1)C(F)(F)F
R. O=C(CCCCCCc1nc(-c2ccc(F)cc2)no1)NO
S. O=C(CCCCCCc1nc(-c2ccccc2Cl)no1)C(F)(F)F
T. Cc1ccc(-c2noc(CCCCCCC(=O)NO)n2)cc1
Order the entries by their reported IC50, beginning at the minimum. # list labels per requested ordering
S, Q, P, T, R
(S: 0.71 µM, Q: 1.03 µM, P: 2.56 µM, T: 5.39 µM, R: 8.76 µM)

P. O=C(CCCCCCc1nc(-c2ccc([N+](=O)[O-])cc2)no1)C(F)(F)F
Q. O=C(CCCCCCc1nc(-c2ccc(Cl)cc2)no1)C(F)(F)F
R. O=C(CCCCCCc1nc(-c2ccccc2)no1)C(F)(F)F
Arrange these 3 compounds in increasing order of IC50. Write the labels out in the order the request specifies.
R, Q, P

1. Cc1ccc(-c2noc(CCCCCCC(=O)C(F)(F)F)n2)cc1
2. O=C(CCCCCCc1nc(-c2ccccc2)no1)NO
Between 1 and 2 , which one shows the smaller IC50 number? When you have decided, please share the label of that item.
2

P. O=C(CCCCCCc1nc(-c2cccc([N+](=O)[O-])c2)no1)NO
Q. O=C(CCCCCCc1nc(-c2ccccc2Cl)no1)NO
Pick one, P or Q : lowest reported IC50. Provide the label of your selected option as the answer.
P
